System: T. cruzi-infected H9C2 cardiomyocytes, high-content imaging
Assay: intracellular T. cruzi amastigote inhibition, imaging, H9C2 host cardiomyocytes, host toxicity (AID 1159565);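 note: infected cells incubated 72 h after plating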
Details: measured here: amastigotes per cell
OBSERVED PROPERTY: pIC50
Formally, pIC50 is defined as -log10 of the concentration c, with c in mol/L.

Q: Query: pIC50; subject: `Cc1nc(N2CCC(C(=O)N3CCC(O)(c4cccnc4)CC3)CC2)nc2ccc(C(C)C)cc12`
Ans: 6.40

Q: Same again, this time with `NC(=O)c1ccccc1Nc1nc(NC2CCCCC2)nc2[nH]ccc12`
Ans: 6.00

Q: Same again, this time with Clc1ccc(C(CC2CCCCO2)Cn2cncn2)c(Cl)c1 (configuration not stated)
Ans: 6.00

Q: Same again, this time with CC(C)(C)C(O)(CCc1ccc(Cl)cc1)Cn1cncn1 (configuration not stated)
Ans: 6.70

Q: Same again, this time with `CC(C)n1c(-c2nonc2N)nc2cccc(OCCN3CCCC3)c21`
Ans: 4.60

Q: Same again, this time with Cc1ccc(Nc2nc(N)nc(CNC(c3nc4ccccc4[nH]3)C(C)C)n2)cc1 (configuration not stated)
Ans: 5.30

Q: Same again, this time with `Cc1nn2c(NCCCO)c3c(nc2c1-c1cccs1)CCC3`
Ans: 5.30

Q: Same again, this time with `COc1ccc(Nc2nccc(N(C)c3n[nH]c4c(F)cccc34)n2)cc1S(C)(=O)=O`
Ans: 5.70

Q: Same again, this time with Cc1ccc2c(c1)-c1onc(C(=O)N3CCCCC3c3cccnc3)c1CO2 (configuration not stated)
Ans: 6.89

Q: Same again, this time with `O=c1[nH]c(NCCCNCc2cc(Br)cc(Br)c2)nc2ccsc12`
Ans: 6.40

Q: Same again, this time with `OCCCNc1nc(Nc2ccncc2)nc2ccccc12`
Ans: 6.70

Q: Same again, this time with `Cn1c(CC(=O)NNC(=O)c2ccc3ccccc3n2)nc2ccccc21`
Ans: 5.20

Q: Same again, this time with `O=C(NCCc1nc(-c2ccc(F)c(F)c2)n[nH]1)C1CCCCC1`
Ans: 5.80

Q: Same again, this time with `NS(=O)(=O)c1ccc(Nc2ncc3cccc(OC4CCNCC4)c3n2)cc1`
Ans: 7.70

Q: Same again, this time with `CS(=O)(=O)c1cccc(-c2cnc(N)c3c(-c4ccc(CO)cc4)csc23)c1`
Ans: 6.49

Q: Same again, this time with O=C(NC1C(=O)N(c2ccccc2)C1c1cccnc1)c1ccc(Cl)s1 (configuration not stated)
Ans: 7.40

Q: Same again, this time with CN(C)Cc1ccc(-c2ccc(S(=O)(=O)NCC3CCCO3)c(F)c2)cc1 (configuration not stated)
Ans: 5.70

Q: Same again, this time with `O=C(Nc1nc(-c2ccccn2)cs1)N1C[C@H]2C[C@@]2(c2ccccc2)C1`
Ans: 6.60

Q: Same again, this time with `O=C(CCCn1cnc([N+](=O)[O-])n1)Nc1cccc(Cl)c1`
Ans: 6.80

Q: Same again, this time with `N#Cc1cc([N+](=O)[O-])ccc1NC1CCCCCC1`
Ans: 5.89

Q: Same again, this time with CNc1cc(C)nc(C2CN(C(=O)c3n[nH]c4ccccc34)CCO2)c1 (configuration not stated)
Ans: 6.10

Q: Same again, this time with `CCC(=O)N1N=C(c2ccc3c(c2)CCCC3)Sc2c1ncn2C(=O)CC`
Ans: 4.89
